Tested target: T1, CD25 (R&D systems cat. #223-2A/CF) (UniProt P01589 22-213, limits assumed)
T1 construct: Bought soluble protein
T1 sequence (looked up): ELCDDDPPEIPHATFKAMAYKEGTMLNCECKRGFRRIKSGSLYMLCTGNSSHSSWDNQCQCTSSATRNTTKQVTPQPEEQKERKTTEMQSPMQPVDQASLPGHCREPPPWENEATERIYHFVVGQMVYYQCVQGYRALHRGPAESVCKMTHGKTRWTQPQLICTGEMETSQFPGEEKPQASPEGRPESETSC
Method summary: Biacore (SPR); antibody captured on Protein A, CD25 injected
Experimental readout: Fold change in Kd vs. H1L1 (fold)
Provide the reading as a plain figure in fold.

These recorded examples may help you get a feel for the data.
binder="anti-CD25 H1L1.14 (antibody, V domains shown, Single variant in the anti-CD25 H1L1 background; also called VL Y71F single variant) VH: QVQLVQSGAEVKKPGASVKVSCKASGYTFTSYRMHWVRQAPGQGLEWMGYINPSTGYTEYNQKFQGRVTITADKSISTAYMELSRLRSDDTAVYYCARGGGVFDYWGQGTLVTVSS VL: QIVLTQSPATLSLSPGERATLSCRASSSISYMHWFQQKPGQSPQLLIYTTSNLASGVPARFSGSGSGTDFTLTISSLQPEDFAVYYCHQRSTYPLTFGSGTKLEIK" experimental_result=1.2
binder="anti-CD25 H1L1.16 (antibody, V domains shown, Single variant in the anti-CD25 H1L1 background; also called VL F36Y single variant) VH: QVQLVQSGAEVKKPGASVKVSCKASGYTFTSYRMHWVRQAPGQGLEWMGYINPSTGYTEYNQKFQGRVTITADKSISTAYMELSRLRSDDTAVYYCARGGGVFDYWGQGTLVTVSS VL: QIVLTQSPATLSLSPGERATLSCRASSSISYMHWYQQKPGQSPQLLIYTTSNLASGVPARFSGSGSGTDYTLTISSLQPEDFAVYYCHQRSTYPLTFGSGTKLEIK" experimental_result=1.2
binder="anti-CD25 H1L1.6 (antibody, V domains shown, Single variant in the anti-CD25 H1L1 background; also called VL Q45R single variant) VH: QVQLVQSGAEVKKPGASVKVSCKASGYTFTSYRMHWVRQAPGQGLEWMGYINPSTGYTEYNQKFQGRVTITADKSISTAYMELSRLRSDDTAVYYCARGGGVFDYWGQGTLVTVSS VL: QIVLTQSPATLSLSPGERATLSCRASSSISYMHWFQQKPGQSPRLLIYTTSNLASGVPARFSGSGSGTDYTLTISSLQPEDFAVYYCHQRSTYPLTFGSGTKLEIK" experimental_result=1
binder="anti-CD25 H1L1.9 (antibody, V domains shown, Single variant in the anti-CD25 H1L1 background; also called VL S43A single variant) VH: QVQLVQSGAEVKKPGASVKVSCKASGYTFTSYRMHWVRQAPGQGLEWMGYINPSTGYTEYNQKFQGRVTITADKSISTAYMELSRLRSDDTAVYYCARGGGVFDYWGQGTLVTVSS VL: QIVLTQSPATLSLSPGERATLSCRASSSISYMHWFQQKPGQAPQLLIYTTSNLASGVPARFSGSGSGTDYTLTISSLQPEDFAVYYCHQRSTYPLTFGSGTKLEIK" experimental_result=1

Entry anti-CD25 H1L1.5 (antibody, V domains shown, Single variant in the anti-CD25 H1L1 background; also called VL Q1E single variant) VH: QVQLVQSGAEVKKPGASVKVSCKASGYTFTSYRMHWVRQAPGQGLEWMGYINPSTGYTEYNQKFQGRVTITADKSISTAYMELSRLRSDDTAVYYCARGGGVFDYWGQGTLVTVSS VL: EIVLTQSPATLSLSPGERATLSCRASSSISYMHWFQQKPGQSPQLLIYTTSNLASGVPARFSGSGSGTDYTLTISSLQPEDFAVYYCHQRSTYPLTFGSGTKLEIK , Fold change in Kd vs. H1L1 reported as 1.1
